# COND: in 2-butoxyethanol, 318.2 K
READOUT NAME: solubility (mole fraction)
Lab note: jot the number down without any unit.

Give a short answer stating reported solubility (mole fraction) for CC(=O)Oc1ccc(C2CC(=O)c3c(OC(C)=O)cc(OC(C)=O)cc3O2)cc1 (stereo unspecified) .
0.00712

====

# COND: in ethanol, 318.2 K
READOUT NAME: solubility (mole fraction)
Lab note: jot the number down without any unit.

Give a short answer stating reported solubility (mole fraction) for CC(=O)Oc1ccc(C2CC(=O)c3c(OC(C)=O)cc(OC(C)=O)cc3O2)cc1 (stereo unspecified) .
0.00239

====

# COND: in 2-methoxyethanol, 308.2 K
READOUT NAME: solubility (mole fraction)
Lab note: jot the number down without any unit.

Give a short answer stating reported solubility (mole fraction) for CC(=O)Oc1ccc(C2CC(=O)c3c(OC(C)=O)cc(OC(C)=O)cc3O2)cc1 (stereo unspecified) .
0.0235
